The measured values listed here are drawn from the nanobody polyreactivity screen of Harvey et al. (2022).

- Experimental details: yeast display, Sf9 membrane polyspecificity reagent, FACS + sequencing; frameworks hold sequencing errors
Property name: polyreactivity (PSR sort gate)

Here's what some known entries look like.
{"Macromolecule sequence": "QVQLVESGGGLVQAGGSLRLSCAPSGSIFNRNVMGWYRQAPGKERELVAAITRGGRTSYADSVKGRFTISRDNAKNTVYLQMNSLKPEDTAVYYCAARRGYWVVYWGQGTQVTVSS", "Property name": "polyreactivity (PSR sort gate)", "Result": "high polyreactivity"}
{"Macromolecule sequence": "QVQLVESGGGLVQAGGSLRLSCAASGFTFANYAMGWYRQAPGKERELVASITRSGGSTYYADSVKGRFTISRDNAKNTVYLQMNSLKPEDTAVYYCAKDRRRWYYTRDYWGQGTQVTVSS", "Property name": "polyreactivity (PSR sort gate)", "Result": "low polyreactivity"}
{"Macromolecule sequence": "QVQLVESAGGLVHAGGSLRLSCAASGFNFGFNAMGWDRQAPGKERELVAVISARGGRTYYADSVKGRFTISRDNAKNSVYLQMNSLKPEDSAVYYSAADDFFRYFFTHWVGDDYWGQGTQVSVSS", "Property name": "polyreactivity (PSR sort gate)", "Result": "low polyreactivity"}
{"Macromolecule sequence": "QVQLVESGGGLVQAGGSLRLSCAASGRIFKSNAMGWYRQAPGKERELVASISRSGSTNYADSVKGRFTISRDNAKNTVYLQMNSLKPEDTAVYYCAKDPDAKGGGYDYWGQGTQVTVSS", "Property name": "polyreactivity (PSR sort gate)", "Result": "low polyreactivity"}

Consider now this further sequence.
Query :: Sample QFHLVDSGGGLVQAGCSLRLSCAASGFTFNSYAMGWYRQAPGKERELVASITRGGGSTYYADSVKGRFTISRDNAKNTVYLKMNSLKPEDTAVYYCTARVRRRGGSFNYWGQGTQVIVSS — what was its polyreactivity (PSR sort gate)?
Result :: high polyreactivity

* * *

- Experimental details: yeast display, Sf9 membrane polyspecificity reagent, FACS + sequencing; frameworks hold sequencing errors
Property name: polyreactivity (PSR sort gate)

Here's what some known entries look like.
{"Macromolecule sequence": "QVQHVESGGGLVQAGGSLRLSCAASGFTFNLYAMGWYRQAPGKERELVAAINWSGGTYYADSVKGRFTISRDNAKNTVYLQMNSLKPEYTAVYYCAADFPYTPWSYHHHVWSPDFDYWGQGTQVTVSS", "polyreactivity (PSR sort gate)": "low polyreactivity"}
{"Macromolecule sequence": "QVQLVESGGGLVQAGGSLRLICAASGIIFYYAMGWYRQAPGKEREFVASIRWSGDSTYYADSVKGRFTISRDNAKNTVYLQMNSLKPEDTAVYYCAAEPDSAVSYVSWRDYWGQGTQVTVSS", "polyreactivity (PSR sort gate)": "low polyreactivity"}
{"Macromolecule sequence": "QVQLVESGGGLVQAGGSLRLTCAASGYTFVIYSMVWYRQAPGKVRELVAAITTIGGRTYYADSVKGRFTISRDNAKNTVYLQMNSLKPEDTAVYYCAADIRSNRLYDGGYWRQGTQVTVSS", "polyreactivity (PSR sort gate)": "low polyreactivity"}
{"Macromolecule sequence": "QVQLVESGGGLVQAGGSLRLSCAASGSTFLYYAMGWYRQAPGKERELVAAIDWSDTSTYYADSVKGRFTISRDNAKNTVYLQMNSLKPEDTAVYYCAADTYLVDGDYWGQGTQETVSS", "polyreactivity (PSR sort gate)": "low polyreactivity"}
{"Macromolecule sequence": "QVQLVESGGGLVQAGGSLRLSCAASGSIFESNAMGWYRQAPGKERELVAAYADSVKGRFTISRDNAKNTVYLQMNSLKPEDTAVYYCAKSLSLYVVPLYEYWGQGTQVTVSS", "polyreactivity (PSR sort gate)": "low polyreactivity"}
{"Macromolecule sequence": "QVQLVESWGGLVQAGGSLRLSCAASGGTFRKNTMGWYRQAPGKERELVAAITRRADRTYYADSVKGRFTISRDNAKHTVYLQMNSLKPEDTAVYYCNAPPPPTKVGGYDYWGQGTQVTVSS", "polyreactivity (PSR sort gate)": "high polyreactivity"}
{"Macromolecule sequence": "QVQLVETGGGIVQARGRLRLSCAASVITFTGYAMGWYRPAPGKERELVAAITSGGGRTYYADSVKGRFTISRDNAKNTVYLLMNSLKPEDTAVYYCNARGQSRYGYWGQGTQVTVSS", "polyreactivity (PSR sort gate)": "high polyreactivity"}
{"Macromolecule sequence": "QVHLEESWGGLVQAGGSLSISCAASGSIFRPNAMGWYRPAPGKERELVAAINKIGGRTYYADSVKGRFTISRDNAKNTVYLQMNSLKPEDTAVYYCNAGGGYHYWGQGTQVTVSS", "polyreactivity (PSR sort gate)": "high polyreactivity"}
{"Macromolecule sequence": "QVQLVESGGGLVQAGGSLRLSCAASGSTFSYYAMGWYRQAPGKERELVAAITRSGGRTYYADSVKGRFTISRDNAKNTVYLQMNSLKPEDTAVYYCAALSVGTRRDYWGQGTQVTVSS", "polyreactivity (PSR sort gate)": "low polyreactivity"}
{"Macromolecule sequence": "QVQLVESGGGLVQAGGSLRLSCAASGSIFGLNAMGWYRQAPGKERELVAAIDIIGGSTYYADSVKGRFTISRDNAKNTVYLQMNSLKPEDTAVYYCAAEADFWRFVEYDYWGQGSQVTVSS", "polyreactivity (PSR sort gate)": "low polyreactivity"}

Query :: Sample QVQLVESGGGLVQAGGTLRLICAASGSTLYWNAMGLYRQAPGKQRELVAGISIGGRTNYADSVKGRFTISRDNAKNTVYLQMISLKPEDTAVYYCNAENTYLGSRYRPYNYWGQGTQVTVSS — what was its polyreactivity (PSR sort gate)?
Result :: low polyreactivity

Query :: Sample QVQLVESGGGLVQAGVSLRLSCAASGFIFVSYAMGWYRQAPGIERELVAAIDRIGGITYYADSVKGRFTISRDNAKNTVYLQMNSLKPVDTAVYYCAAAARYATVRVGREYYWGQGTQVTVSS — what was its polyreactivity (PSR sort gate)?
Result :: low polyreactivity

Query :: Sample QVQLVESGGGLVQAGGSLRLSCAASGRIFDANAMGWYRQAPGKERELVAAITYSGGRTYYADSVKGRFTISRDNAKNTVYLQMNSLKPVDTAVYYCAKRYAYIYDSWGQGTQVTVSS — what was its polyreactivity (PSR sort gate)?
Result :: low polyreactivity

Query :: Sample QVQLVESGGGLVQAGGSLRLSCAASGRIFTIYAMGLYRQEPGKERELVASITWRGGRTYYADSVKGRFTISRDNAKNTVYLQMNSLKPEDTAVYYCAAEFYRWGSLSFSYDYWGQGTQVTVSS — what was its polyreactivity (PSR sort gate)?
Result :: low polyreactivity

* * *

- Experimental details: yeast display, Sf9 membrane polyspecificity reagent, FACS + sequencing; frameworks hold sequencing errors
Property name: polyreactivity (PSR sort gate)

Here's what some known entries look like.
{"Macromolecule sequence": "QVQLVESGGGLDQAGGRLRLSCAASGFTIRDNAMGWYRQAPGKEMELVAAISRSGDSTNYADSVKGRFTISRDNAKNTVYLQMNSLKPEDTAVYYSAAKRRYTTYDYWGQGTLVTVSS", "Result": "high polyreactivity"}
{"Macromolecule sequence": "QVQLVESGGGLVQAGGSLRLSCAASGIIFRNYAMGWYRQAPGEERELVATIRYRGGRTYADSVKGRFTISRDNAKNTVYLQMNSLKPEDTAVYYCNTYARYAYLTGRMDYWGQGTQVTVSS", "Result": "high polyreactivity"}
{"Macromolecule sequence": "QVQLVESGGGLVQAGVSLRLSCAASGRIFSPYAMGWYRQAPGKERELVAAIDWDGGGTYYADSVKGRFTISRDNAKNTVYLQMNSLKPEDTAVYYCAAETDLANGTSPSDYCGQGTQVTVSS", "Result": "low polyreactivity"}
{"Macromolecule sequence": "QVQLEESGGGLVQAGGSLRLSCAASGFTFRRYDMGWYRQAPGKERELVATINRGGSTDSADSVKGRFTISRDNAKNTVYLQMNSLKPEDTAVYYCATRYYSSRTWSEYYYWGQGTQVTVSS", "Result": "high polyreactivity"}
{"Macromolecule sequence": "QVQLVESGAGLVQAGGSLRLSCAASGRNFGTYAMGWYTQAPGTERELVAGINGSGGSTYYADSVKGRFTISRDNAKNTVFLQMNSLKPEDTAVYYCAKYNWYRAWRYGYWGQGTQVTVSS", "Result": "high polyreactivity"}

Query :: Sample QVQLVESGGGLVQAGGSLRLSCAASGSIFGGYALGWYRQAPGNERELVAAITSSGGRTYYADSVKGRFTISRDNAKNTVYLQMNSLKPEDTAVYYCAARYTRWRYIYKDYDYWGQGTQVTVSS — what was its polyreactivity (PSR sort gate)?
Result :: high polyreactivity

Query :: Sample QVQLVESGGGLVQAGGSLRLSCAASGSIFSQYAMGWYRQAPGKERELVAAISRSGGRTSYADSVKGRFTISRDNAKNTVYLQMNSLKPEDTAVYYCAARGPTNMGYWGQGTQVTVSS — what was its polyreactivity (PSR sort gate)?
Result :: high polyreactivity

Query :: Sample QVQLVESGGGLVQAGGSLRLSCAASGSTFLYYAMGWYRQAPGKEREFVAAISISGGSTYYADSVKGRFTISRDNAKNTVYLHMNSLKPEDTAVYYFAARKKEYKPGNYWGQGTQVTVSS — what was its polyreactivity (PSR sort gate)?
Result :: low polyreactivity

Query :: Sample QVQLVESGGGLVQAGGSLRLSCAASGFIFYGYAMGWYSQAPGKERELVAGISTGGSTNYADSVKGRFTISRDNAKNTVYLQMNSLKPEDTAVYYCAKRAYFYYGRYDYWGQGTQVTVSS — what was its polyreactivity (PSR sort gate)?
Result :: low polyreactivity

Query :: Sample QLQLGESGGGLVQAGGSLRLSCAASGRTFKDYAMGWYREAPGKERELVAAISWSGGDTYYADSVKGRFTISRDNAKNTVYLQMNSLKPEDTAVYYCNADPSGVFFYSLEFEYWGQGTQVTVSS — what was its polyreactivity (PSR sort gate)?
Result :: low polyreactivity

Query :: Sample QVQLVESGGGLVQAGGSLRLSCAASGRIITRNAMGWYRPAPGKERELVAAISSGGSTSYADSVKGRFTISRDNAKNTVYLQLNSVKPEDTAVYYCATKWYWWYDGYYYWGQGTQVTVSS — what was its polyreactivity (PSR sort gate)?
Result :: low polyreactivity
